Molecular target: 3',5'-cyclic-AMP phosphodiesterase 4B (Homo sapiens)
Assay: Inhibition of human brain PDE4B catalytic domain using cAMP as substrate incubated for 1 hr by luminescence method
PROPERTY: pIC50
Numbers only, as −log10 of the molar value.

Recorded pIC50 for CC(C)Nc1nccc(-c2c(C3CC3)nn3ccccc23)n1 with 3',5'-cyclic-AMP phosphodiesterase 4B (Homo sapiens), please?
5.92

* * *

Target: 3',5'-cyclic-AMP phosphodiesterase 4B (Homo sapiens, UniProt Q07343)
Sequence (Q07343 whole entry, the tested form may be a part): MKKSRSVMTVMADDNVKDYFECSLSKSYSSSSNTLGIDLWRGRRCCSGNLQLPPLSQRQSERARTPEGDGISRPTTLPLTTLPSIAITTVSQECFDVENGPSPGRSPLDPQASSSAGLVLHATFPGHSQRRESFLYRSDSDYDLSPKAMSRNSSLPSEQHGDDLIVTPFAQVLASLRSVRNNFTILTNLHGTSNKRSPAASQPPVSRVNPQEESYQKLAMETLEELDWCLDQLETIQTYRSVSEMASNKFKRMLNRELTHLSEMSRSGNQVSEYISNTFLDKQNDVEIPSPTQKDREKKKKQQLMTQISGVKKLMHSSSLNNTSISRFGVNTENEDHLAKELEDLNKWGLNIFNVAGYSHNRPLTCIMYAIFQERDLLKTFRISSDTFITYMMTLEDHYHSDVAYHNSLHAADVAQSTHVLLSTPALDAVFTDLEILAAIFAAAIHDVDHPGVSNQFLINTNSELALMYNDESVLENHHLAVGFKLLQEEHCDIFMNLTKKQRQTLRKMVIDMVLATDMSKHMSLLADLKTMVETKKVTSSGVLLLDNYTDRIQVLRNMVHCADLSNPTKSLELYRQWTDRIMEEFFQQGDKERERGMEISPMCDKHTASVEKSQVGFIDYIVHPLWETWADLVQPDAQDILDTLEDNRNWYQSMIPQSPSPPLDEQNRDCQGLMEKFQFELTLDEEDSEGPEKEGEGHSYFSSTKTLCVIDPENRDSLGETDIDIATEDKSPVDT
Assay: Inhibition of recombinant human PDE4B2 using cAMP as substrate preincubated for 5 mins followed by substrate addition and measured after 60 mins by luminescence method
PROPERTY: IC50

Need IC50 of COc1cccc(Nc2c(C(N)=O)ccc3c(C)cc(S(=O)(=O)c4cccc(C(=O)Nc5ccc(C#CCCCNC[C@@H](O)c6ccc(O)c7[nH]c(=O)ccc67)cc5)c4)cc23)c1 , thanks.
5 nM

* * *

Molecular target: 3',5'-cyclic-AMP phosphodiesterase 4B (Homo sapiens, UniProt Q07343)
Test: Inhibition of recombinant human PDE4B2 preincubated for 30 mins followed by [3H]cyclic AMP addition and measured after 20 mins by radiometric assay
Exercise: for every item that follows, state its recorded pIC50.
One number for each entry, as −log10 of the molar value.

1. O=C(N[C@H]1CC[C@@H](C2C(=O)c3cc(F)cnc3N(C3CCSCC3)C2=O)CC1)c1cn2cc(F)ccc2n1 (some centres not stated): 9.90

Need pIC50 of Cn1nc(C(=O)NC2CCC(NC(=O)c3cc(F)cnc3Oc3cccc(-c4ccc(CCCN5CCNCC5)cc4)c3)CC2)cc1C(F)(F)F (configuration not stated) , thanks.
11.00

* * *

Target: UniProtKB Q07343
Test: Inhibition of recombinant N-terminal GST-tagged full length human PDE4B1 expressed in baculovirus infected Sf9 cells […] as substrate by HPLC-MS method
PROPERTY: IC50

Need IC50 of CCOc1cc(C(CS(C)(=O)=O)N2C(=O)c3csc(NC(C)=O)c3C2=O)ccc1OC (stereo unspecified) , thanks.
26 nM

* * *

Target: 3',5'-cyclic-AMP phosphodiesterase 4B (Homo sapiens)
Experiment: Inhibition of PDE4B (unknown origin)
Exercise: for every item that follows, state its recorded pIC50.
Give bare numbers, as −log10 of the molar value.

1) Cc1ccc(O)c(C(=O)N[C@H]2CC[C@@H](NC(=O)c3cc(F)cnc3Oc3ccc(F)c(F)c3)CC2)c1: 9.42

Moving on to another compound below.
Need pIC50 of CC(=O)Nc1ccc(-c2c(-c3ccc(F)cc3)nc([S+](C)[O-])n2C)cn1 (configuration not stated) , thanks.
6.70

* * *

Molecular target: 3',5'-cyclic-AMP phosphodiesterase 4B (Homo sapiens)
Test: Inhibition of human PDE4B2 expressed in HEK293 cells using cAMP as substrate incubated for 45 to 60 mins by ELISA
PROPERTY: IC50 (nM)
Answers are plain numbers, in nM.

Need IC50 of CCc1nc2c(cnn2CC)c(NC2CCCCC2)c1C1=NOC2(C1)CC(C1N=NN=N1)C2 (stereo unspecified) , thanks.
5

* * *

Exercise: for every item that follows, state its recorded pIC50.
Target: 3',5'-cyclic-AMP phosphodiesterase 4D (Homo sapiens)
Sequence (Q08499 whole entry): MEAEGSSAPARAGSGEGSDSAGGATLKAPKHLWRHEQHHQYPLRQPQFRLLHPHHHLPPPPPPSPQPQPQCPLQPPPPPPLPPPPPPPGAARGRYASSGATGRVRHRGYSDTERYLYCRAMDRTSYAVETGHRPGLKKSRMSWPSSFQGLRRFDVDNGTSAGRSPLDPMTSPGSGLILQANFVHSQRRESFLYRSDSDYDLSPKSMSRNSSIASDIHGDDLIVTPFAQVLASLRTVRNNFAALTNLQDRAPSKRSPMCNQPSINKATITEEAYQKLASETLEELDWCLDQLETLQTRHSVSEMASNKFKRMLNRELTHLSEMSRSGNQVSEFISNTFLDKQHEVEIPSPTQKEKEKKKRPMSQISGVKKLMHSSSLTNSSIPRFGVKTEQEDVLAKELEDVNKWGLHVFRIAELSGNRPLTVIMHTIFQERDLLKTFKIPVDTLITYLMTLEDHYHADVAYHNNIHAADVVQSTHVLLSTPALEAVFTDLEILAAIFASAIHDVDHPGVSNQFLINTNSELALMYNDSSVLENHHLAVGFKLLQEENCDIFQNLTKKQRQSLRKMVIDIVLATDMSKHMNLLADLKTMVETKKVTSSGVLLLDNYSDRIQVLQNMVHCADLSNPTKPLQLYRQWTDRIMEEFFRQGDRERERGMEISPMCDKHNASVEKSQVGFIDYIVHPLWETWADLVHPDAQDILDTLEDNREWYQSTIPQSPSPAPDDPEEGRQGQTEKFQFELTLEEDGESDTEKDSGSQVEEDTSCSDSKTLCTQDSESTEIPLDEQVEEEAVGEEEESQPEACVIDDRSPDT
Assay: Inhibition of PDE4D3 (unknown origin)
Give bare numbers, as −log10 of the molar value.

1. COc1ccc([C@H]2CNC(=O)[C@H](Cc3cccc(C)c3)C2)cc1OC1CCCC1 [HT-0712]: 6.82

Moving on to another molecule below.
Recorded pIC50 for CCOC(=O)c1cnc2c(cnn2CC)c1NN=C(C)C [ETAZOLATE] with 3',5'-cyclic-AMP phosphodiesterase 4D (Homo sapiens), please?
6.41
